test_method_notes: Pharmacokinetic evaluation in rats
Assay type: in vivo
setup_conditions: in vivo; Rat PK, oral (PO), 10 mg/kg
property_label: Tmax (min)

[
  {
    "structure_notation": "O=C(O)c1ccc2nc(CN3CCC(c4ccccc4OCc4ccc(Cl)cc4F)CC3)n(C[C@@H]3CCO3)c2c1",
    "property_label": "Tmax",
    "data_value": 24.6
  }
]

###

test_method_notes: Solubility test
Assay type: physicochemical
setup_conditions: thermodynamic from solid, water, 37°C, HPLC
property_label: solubility at 24 h

[
  {
    "compound": "O=C(O)c1ccc2nc(CN3CCC(c4ccccc4OCc4ccc(Cl)cc4F)CC3)n(C[C@@H]3CCO3)c2c1 [Compound of formula I]",
    "data_value": "< 1 µg/mL"
  }
]

###

test_method_notes: Hygroscopicity test method (DVS)
Assay type: physicochemical
setup_conditions: 80% RH, 25°C, DVS
property_label: Hygroscopicity (80% RH), description in words

[
  {
    "compound": "O=C(O)c1ccc2nc(CN3CCC(c4ccccc4OCc4ccc(Cl)cc4F)CC3)n(C[C@@H]3CCO3)c2c1 [Compound of formula I]",
    "data_value": "10 to 90% RH linear reversible"
  }
]

###

test_method_notes: Pharmacokinetic evaluation in rats
Assay type: in vivo
setup_conditions: plasma; Rat PK, oral (PO), 10 mg/kg

[
  {
    "structure_notation": "O=C(O)c1ccc2nc(CN3CCC(c4ccccc4OCc4ccc(Cl)cc4F)CC3)n(C[C@@H]3CCO3)c2c1",
    "AUC(0-t)": "396 ng·h/mL"
  }
]

###

test_method_notes: Pharmacokinetic evaluation in rats
Type: in vivo
setup_conditions: in vivo; Rat PK, oral (PO), 10 mg/kg
Protocol: Rats were used as test animals, and the plasma drug concentrations at different time points after gavage administration of the test sample were measured. The pharmacokinetic behavior of the compound of the present disclosure in rats was studied to evaluate its metabolic characteristics. For each experimental group, 3 rats with similar body weights were selected and orally administered a single dose of 10 mg/kg. […]

[
  {
    "structure_notation": "O=C(O)c1ccc2nc(CN3CCC(c4ccccc4OCc4ccc(Cl)cc4F)CC3)n(C[C@@H]3CCO3)c2c1",
    "AUC(0-inf) / ng·h/mL": 772
  }
]

###

test_method_notes: Pharmacokinetic evaluation in rats
Type: in vivo
setup_conditions: in vivo; Rat PK, oral (PO), 10 mg/kg

[
  {
    "structure_notation": "O=C(O)c1ccc2nc(CN3CCC(c4ccccc4OCc4ccc(Cl)cc4F)CC3)n(C[C@@H]3CCO3)c2c1",
    "endpoint_unit": "ng/mL",
    "Cmax": 410
  }
]

###

Measured Purity, 80°C (1 day), listed per entry.
test_method_notes: Purity test after storage in an oven at set temperature (stability)
Type: physicochemical
setup_conditions: oven, 80°C, 1 day, HPLC
Description: Purity test: The sample to be tested was dissolved in a methanol solution, and the sample purity was measured by HPLC.

[
  {
    "compound": "O=C(O)c1ccc2nc(CN3CCC(c4ccccc4OCc4ccc(Cl)cc4F)CC3)n(C[C@@H]3CCO3)c2c1 [Crystal form A of the monohydrate of the compound of formula]",
    "Purity, 80°C (1 day), %": 99.35
  },
  {
    "compound": "O=C(O)c1ccc2nc(CN3CCC(c4ccccc4OCc4ccc(Cl)cc4F)CC3)n(C[C@@H]3CCO3)c2c1 [Crystal form III of the compound of formula I]",
    "Purity, 80°C (1 day), %": 83.43
  },
  {
    "compound": "O=C(O)c1ccc2nc(CN3CCC(c4ccccc4OCc4ccc(Cl)cc4F)CC3)n(C[C@@H]3CCO3)c2c1 [Crystal form II of the compound of formula I]",
    "Purity, 80°C (1 day), %": 80.43
  },
  {
    "compound": "O=C(O)c1ccc2nc(CN3CCC(c4ccccc4OCc4ccc(Cl)cc4F)CC3)n(C[C@@H]3CCO3)c2c1 [Crystal form I of the compound of formula I]",
    "Purity, 80°C (1 day), %": 91.81
  }
]
